assay: qHTS Assay for Rab9 Promoter Activators; conditions: Huh7 Rab9 promoter-luciferase reporter, luminescence, 24 h; series mostly up to 9.22 µM; further: nearly all actives have a fitted effect of over 60% in size; further: potency means the concentration at half of the fitted maximal effect
Out of some 320,000 compounds screened, about 9,100 (2.8%) were called active. About 3% were inconclusive and are not listed. For the sample, actives were picked, then their nearest neighbours and some compounds at random.
property label: Potency

INSERT INTO measurements (compound, property_label, value_observed) VALUES
  ('O=c1c2ccccc2nc2n1C(CSc1ccc(Cl)cc1)CN2 (stereo unspecified)', 'Potency', 'inactive'),
  ('Cc1ccc(NC(=O)CN2CCC(C(N)=O)CC2)cc1[N+](=O)[O-]', 'Potency', 'inactive'),
  ('Cc1ccc(NC(=O)c2sccc2C)cc1[N+](=O)[O-]', 'Potency', '1.78 µM (active)'),
  ('Cc1ccc(/C=N/NC(=O)c2sccc2OCc2ccc(F)cc2)cc1', 'Potency', 'inactive'),
  ('Cc1nc2ccccc2cc1C(=O)N/N=C/c1ccc([N+](=O)[O-])cc1', 'Potency', 'inactive'),
  ('Cc1ccsc1C(=O)N/N=C/c1ccc([N+](=O)[O-])cc1', 'Potency', '3.55 µM (active)');

----------
assay: qHTS Assay for Rab9 Promoter Activators; settings: Huh7 Rab9 promoter-luciferase reporter, luminescence, 24 h; series mostly up to 9.22 µM; further: nearly all actives have a fitted effect of over 60% in size
About 9,100 (2.8%) of roughly 320,000 compounds were called active. Roughly 3% stayed inconclusive and do not appear here. The call rests on the fitted dose curve; in most records, active means well fitted activation curve with a large enough effect; inconclusive means small, poorly fitted or top-dose-only effect; inactive means no such curve, though single readings can be large or run the other way. The full list was thinned out, with actives kept by preference.
Possible outcomes: active, inactive

INSERT INTO assay_data (compound, category) VALUES
  ('Brc1ccc2nc(N3CCCC3)sc2c1', 'active'),
  ('Cn1c(NC(=O)c2ccccc2)nc2ccccc21', 'active'),
  ('Cn1sc(NC(=O)c2ccccc2)nc1=O', 'inactive'),
  ('CCCN(CCC)c1ccc(C(O)c2nnc(-c3ccccc3)o2)cc1 (configuration not stated)', 'inactive'),
  ('Cc1sc2ncnc(N3CCC(C(=O)Nc4ccc(F)cc4Cl)CC3)c2c1C', 'inactive'),
  ('O=C(N[C@@H](Cc1c[nH]c2ccccc12)C(=O)O)OCC1c2ccccc2-c2ccccc21', 'inactive'),
  ('Cc1ccc(F)cc1S(=O)(=O)Nc1cccc(C(=O)N2CCCC(C(N)=O)C2)c1 (configuration not stated)', 'inactive'),
  ('O=C(NCCc1cccc(F)c1)C1CCCN(c2nc3ccccc3s2)C1 (configuration not stated)', 'inactive'),
  ('O=C(N/N=C/c1c(Cl)[nH]c2ccccc12)c1sc2ccccc2c1Cl', 'inactive'),
  ('COc1ccc(/C=C2\SC(=O)N(CCC(=O)NCCCn3ccnc3)C2=O)cc1', 'inactive'),
  ('Fc1ccc2nc(N3CCCCC3)sc2c1', 'active'),
  ('COc1ccc(/C=C2\SC(=O)N(CCC(=O)NC3CCS(=O)(=O)C3)C2=O)cc1 (configuration not stated)', 'active'),
  ('COc1ccccc1/C=C1\SC(=O)N(CCC(=O)N(C)C2CCS(=O)(=O)C2)C1=O (configuration not stated)', 'inactive'),
  ('COc1ccc2nc(N3CCN(C(=O)c4ccc([N+](=O)[O-])o4)CC3)sc2c1', 'inactive'),
  ('Cc1ccc(-c2nc(COC(=O)c3c(C)noc3C)cs2)cc1', 'active'),
  ('O=C(Nc1ccon1)c1cccc(Cl)c1', 'inactive'),
  ('COc1cc(OC)cc(C(=O)NCC(=O)OCc2csc(-c3ccccc3)n2)c1', 'inactive'),
  ('NC(=O)C1CCN(C(=O)c2ccc(F)c(S(=O)(=O)N3CCOCC3)c2)CC1', 'inactive'),
  ('CN(C)CCCN(C(=O)c1ccc(S(=O)(=O)N2CCCCCC2)cc1)c1nc2cc3c(cc2s1)OCCO3', 'inactive'),
  ('Cc1c(C(=O)Nc2cccc(-c3nnc4n3CCCCC4)c2)oc2ccccc12', 'inactive'),
  ('Cc1c(C(=O)Nc2ccccc2)sc2nc3n(c(=O)c12)CCCCC3', 'active'),
  ('CCCC(=O)Nc1ccc2c(c1)nc(CCNC(=O)c1ccco1)n2C', 'inactive');
